System: IRAK1
condition.parameters: Compound Concentration (nM):1000;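 note: KINOMEscan scanMAX binding as percent activity remaining versus control; lower means stronger binding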
Outcome label depends on Percent Control relative to 80%: at/above gives Fulfilled, below gives Not fulfilled.

Previously resolved entries follow.
INSERT INTO assay_data (compound, subject_of_test, classification) VALUES
  ('COc1cc(N2CCN(C(C)C)CC2)ccc1Nc1nc(Nc2ccc(F)cc2C(=O)NC[C@@H](O)CO)c2cc[nH]c2n1 [GSK1392956A]', 'IRAK1', 'Fulfilled'),
  ('CC1=C(C(=O)Nc2ccc3[nH]ncc3c2)C(c2ccc3ccccc3c2)CC(=O)N1 (centres unmarked) [GSK270822A]', 'IRAK1', 'Not fulfilled'),
  ('O=C(Nc1n[nH]c2nc(-c3ccc(O)cc3)c(Br)cc12)C1CC1 [SB-725317]', 'IRAK1', 'Not fulfilled'),
  ('COc1cc2ncnc(Nc3ccc4c(cnn4Cc4ccccc4)c3)c2cc1OC.Cl [GW282449A]', 'IRAK1', 'Fulfilled'),
  ('Cl.O=S1CCN(Cc2ccc(-c3ccc4ncnc(Nc5ccc(OCc6ccccc6)c(F)c5)c4c3)o2)CC1 [GW576924A]', 'IRAK1', 'Fulfilled'),
  ('CN1CCN(C(=O)c2ccc(NC(=O)Nc3ccc(N(C)c4ccnc(Nc5ccc(CS(C)(=O)=O)cc5)n4)cc3)cc2)CC1.Cl [GW830263A]', 'IRAK1', 'Not fulfilled');

Turning now to a further compound:
Problem: In plain terms: is recorded Percent Control at least 80% for Nc1ncnc2occ(-c3ccc(NC(=O)Nc4cc(C(F)(F)F)ccc4F)cc3)c12 [GW770249X] ?
Result: Fulfilled

====

Test system: SIK2
condition.parameters: Compound Concentration (nM):1000
property.label: Percent Control (%)
One number for each entry, in %.

INSERT INTO measurements (compound, subject_of_test, unit_abbreviation, test_result) VALUES
  ('Cc1cc(O)cc(C)c1/C=C/c1cncc(C(N)=O)c1 [GW435821X]', 'SIK2', '%', 53),
  ('O=C1Nc2ccc(C(=O)c3ccco3)cc2C1=Cc1cc(Cl)c(O)c(Cl)c1 [GW406108X]', 'SIK2', '%', 100),
  ('CCS(=O)(=O)c1ccc(OC)c(Nc2ncc(-c3cccc(OC)c3)o2)c1 [GW580509X]', 'SIK2', '%', 91);

Please state, for each entry, its recorded Percent Control.
1. CC(C)COC(=O)c1ccc2c(c1)/C(=C/Nc1ccc(S(N)(=O)=O)cc1)C(=O)N2 [GW416981X]
2. C[C@@H](Oc1cc(-n2cnc3ccc(OC4CCN(C)CC4)cc32)sc1C(N)=O)c1ccccc1Cl [GSK579289A]
3. Cl.O=C(Nc1ccc(Oc2ccc3[nH]c(NC(=O)c4ccco4)nc3c2)cc1)Nc1cc(C(F)(F)F)ccc1F [GW683134A]
4. COc1cc(/C=N/Nc2ncnc3[nH]ncc23)ccc1O [GW578748X]
5. COc1cc2ncn(-c3cc(O[C@H](C)c4ccccc4Cl)c(C(N)=O)s3)c2cc1OC [GSK237701A]

Result:
94
100
100
83
65

====

What Percent Control was measured for each of the following?
Tested on: ABL1(M351T)-phosphorylated
condition.parameters: Compound Concentration (nM):1000
Give bare numbers, in %.

Reference set, count: 2
INSERT INTO assay_data (molecule, property_label, test_result) VALUES
  ('NS(=O)(=O)c1ccc(N/N=C2\C(=O)Nc3ccc(Cl)cc32)cc1 [GW280670X]', 'Percent Control', 100),
  ('COc1cc(N2CCN(C(C)C)CC2)ccc1Nc1nc(Nc2ccc(F)cc2C(=O)NC[C@@H](O)CO)c2cc[nH]c2n1 [GSK1392956A]', 'Percent Control', 97);

Okay, next one:
Problem: Please report the recorded Percent Control for CCn1c(-c2nonc2N)nc2c(C#CC(C)(C)O)nc(OCCNC)cc21.Cl [GSK949675] .
Result: 100
